Value source: patent US12319655B2

Tested on: H2405 cells
Assay: H2405 Cell Proliferation Assay (1)
Type: cell-based
Settings: Homo sapiens, NCI-H2405
pIC50: −log10 of the molar value.
Entries annotated with measured pIC50
Quantity kind: pIC50

In [3]: df
Out[3]:
                                    compound  quantity_kind  endpoint_result
 0  Cc1ncc(NC(=O)c2cnn(C(C)(C)C)c2)cc1-c1cccc(-c2cc(NC(=O)C3CC3)ncn2)c1          pIC50     6.30 to 7.00
 1  COC(=O)Nc1cc(-c2cc(-c3cc(NC(=O)c4ccnc(C(C)(C)C#N)c4)cnc3C)ccn2)ccn1          pIC50           ≥ 7.00
 2  COC(=O)Nc1cc(-c2cc(-c3cc(NC(=O)c4ccnc(C(C)(C)F)c4)ccc3C)nc(C)n2)ccn1          pIC50     6.30 to 7.00
 3  Cc1ccc(NC(=O)c2cc(C3CC3)n(C)n2)cc1-c1nccc(-c2ccnc(NC(=O)C3CC3)c2)n1          pIC50           ≥ 7.00
 4  CNC(=O)c1cc(-c2cncc(-c3cc(NC(=O)Cn4cc(C(C)C)nn4)ccc3C)c2)ncn1          pIC50     5.00 to 6.00
 5  COC(=O)Nc1cc(-c2cnnc(-c3cc(NC(=O)c4ccnc(C5CC5)c4)cnc3C)c2)ccn1          pIC50     5.00 to 6.00
 6  Cc1ncc(NC(=O)c2ccnc(C(C)(C)C#N)c2)cc1-c1cccc(-c2ccnc(NC(=O)C3CC3)c2)c1          pIC50     6.30 to 7.00
 7  COC(=O)Nc1cc(-c2ccnc(-c3cc(NC(=O)c4ccnc(C(C)(C)F)c4)ccc3C)n2)ccn1          pIC50     6.30 to 7.00
 8  Cc1ccc(NC(=O)C2CN(C)CCO2)cc1-c1cccc(-c2cc(NC(=O)C3CC3)ncn2)c1 (stereo not drawn)          pIC50     5.00 to 6.00
 9  Cc1ncc(NC(=O)c2ccnc(C(C)(C)F)c2)cc1-c1cncc(-c2cc(NC(=O)C3CC3)ncn2)c1          pIC50           ≥ 7.00
10  Cc1ccc(NC(=O)c2cc(CN(C)C)cc(C(F)(F)F)c2)cc1-c1cncc(-c2ccnc(NC(=O)C3CC3)c2)n1          pIC50           ≥ 7.00
11  Cc1ccc(NC(=O)c2ccnc(S(C)(=O)=O)c2)cc1-c1cc(-c2ccnc(NC(=O)C3CC3)c2)cnn1          pIC50     5.00 to 6.00
12  Cc1ccc(NC(=O)c2cn(C(C)C)nc2C)cc1-c1cc(-c2ccnc(NC(=O)C3CC3)c2)cnn1          pIC50     5.00 to 6.00
13  COC(=O)Nc1cc(-c2cnnc(-c3cc(NC(=O)c4ccnc(C(C)(C)F)c4)ccc3C)c2)ccn1          pIC50     6.30 to 7.00
14  CNC(=O)c1cc(-c2cnnc(-c3cc(NC(=O)c4cn(C(C)(C)C)nn4)ccc3C)c2)ccn1          pIC50     5.00 to 6.00
